Tested on: proteasome
METHOD DESCRIPTION: Cellular proteasome inhibition test: accumulation of 4Ub-Luc reporter (luciferase activity) in DLD-1 4Ub-Luc cell line
Format: cell-based, human
DETAILS: concentration tested 10^−5 M; DLD-1 4Ub-Luc cells; 8 hours; epoxomicin = 100%
Protocol: Biological tests were carried out according to protocols described in the following articles: Ausseil F. et al. J. Biomol Screen. 2007, 12, 106-116 and Vandenberghe I. et al. Biochemical Pharmacology 2008, 76, 453-462. In order to select novel proteasome inhibitor compounds, it is necessary to indirectly measure the activity of this proteasome within cells. […] This accumulation is detected by an increase in luciferase activity in the treated extract compared to the extract from untreated cells. […]
Where a name gives a salt, the structure may show the parent alone.
The recorded relative induction factor (IF % luminescence) versus epoxomicin of each item maps onto one of these classes: bucket 1 (below 6%), bucket 2 (6% to below 20%), bucket 3 (20% or more)

q: State the class of the compound shown: C=C(C(=O)[C@H](OC(=O)CNC(=O)OC(C)(C)C)[C@@H](C)[C@H]1[C@@H](OC(C)=O)C[C@@]2(C)C3CCC4[C@H](C)C(=O)C=C[C@@]45C[C@@]35CC[C@]12C)[C@@H](C)COC(C)=O (some centres unmarked)
a: bucket 1

q: State the class of the compound shown: C=C(C(=O)[C@H](O)[C@@H](C)[C@H]1[C@@H](OC(C)=O)C[C@@]2(C)C3CCC4[C@H](C)C(=O)C=C[C@@]45C[C@@]35CC[C@]12C)[C@@H](C)COC(=O)CCC(=O)O (some centres unmarked)
a: bucket 1

q: State the class of the compound shown: CC(=O)O[C@H]1C[C@@]2(C)C3CCC4[C@H](C)C(=O)C=C[C@@]45C[C@@]35CC[C@]2(C)[C@H]1[C@H](C)[C@@H](OC(C)=O)C1=C(CN=[N+]=[N-])C(C)CO1 (some centres unmarked)
a: bucket 3

q: State the class of the compound shown: C=C(C(=O)[C@H](OC(C)=O)[C@@H](C)[C@H]1[C@@H](OC(C)=O)C[C@@]2(C)[C@@H]3[C@H]4O[C@H]4[C@H]4[C@H](C)C(=O)C=C[C@@]45C[C@@]35CC[C@]12C)[C@@H](C)CO
a: bucket 2

q: State the class of the compound shown: C=C(C(=O)[C@H](OC(C)=O)[C@@H](C)[C@H]1[C@@H](OC(C)=O)C[C@@]2(C)C3CCC4C(C)C(=O)C=CC45CC35CC[C@]12C)[C@@H](C)CO (some centres unmarked)
a: bucket 3

q: State the class of the compound shown: C=C(C(=O)[C@H](O)[C@@H](C)[C@H]1[C@@H](OC(C)=O)C[C@@]2(C)[C@@H]3CC[C@H]4[C@H](C)C(=O)C=C[C@@]45C[C@@]35CC[C@]12C)[C@@H](C)COC(=O)Nc1ccc(N(C)C)cc1
a: bucket 3

q: State the class of the compound shown: C=C(C(=O)[C@H](O)[C@@H](C)[C@H]1[C@@H](OC(C)=O)C[C@@]2(C)C3CCC4[C@H](C)C(=O)C=C[C@@]45C[C@@]35CC[C@]12C)[C@@H](C)COC(=O)CNC(=O)OC(C)(C)C (some centres unmarked)
a: bucket 2

q: State the class of the compound shown: C=C(C(=O)[C@H](OC(C)=O)[C@@H](C)[C@H]1[C@@H](OC(C)=O)C[C@@]2(C)C3CCC4[C@H](C)C(=O)C=C[C@@]45C[C@@]35CC[C@]12C)[C@@H](C)COC(=O)CCl (some centres unmarked)
a: bucket 2

q: State the class of the compound shown: C=C(C(=O)[C@H](OC(C)=O)[C@@H](C)[C@H]1[C@@H](OC(C)=O)C[C@@]2(C)[C@@H]3CC[C@H]4[C@H](C)C(=O)C=C[C@@]45C[C@@]35CC[C@]12C)[C@@H](C)COC(=O)N1CCN(C)CC1 [Compound 22, hydrochloride]
a: bucket 1

q: State the class of the compound shown: C=C(C(=O)[C@H](O)[C@@H](C)[C@H]1[C@@H](OC(C)=O)C[C@@]2(C)[C@@H]3CC[C@H]4[C@H](C)C(=O)C=C[C@@]45C[C@@]35CC[C@]12C)[C@@H](C)COC(=O)N1CCN(C)CC1
a: bucket 1

q: State the class of the compound shown: C=C(C(=O)[C@H](OC(C)=O)[C@@H](C)[C@H]1[C@@H](OC(C)=O)C[C@@]2(C)C3CCC4[C@H](C)C(=O)C=C[C@@]45C[C@@]35CC[C@]12C)[C@@H](C)COC(=O)CN(C)C (some centres unmarked)
a: bucket 2

q: State the class of the compound shown: CC(=O)O[C@H]1C[C@@]2(C)[C@@H]3CC[C@H]4[C@H](C)C(=O)C=C[C@@]45C[C@@]35CC[C@]2(C)[C@H]1[C@H](C)[C@@H](OC(C)=O)C(=O)C=C(C)C
a: bucket 3

q: State the class of the compound shown: C=C(C(=O)[C@H](O)[C@@H](C)[C@H]1[C@@H](OC(C)=O)C[C@@]2(C)[C@@H]3CC[C@H]4[C@H](C)C(=O)C=C[C@@]45C[C@@]35CC[C@]12C)[C@@H](C)CO
a: bucket 1

q: State the class of the compound shown: C=C(C(=O)[C@H](OC(C)=O)[C@@H](C)[C@H]1[C@@H](OC(C)=O)C[C@@]2(C)[C@@H]3CC[C@H]4[C@H](C)C(=O)CC[C@@]45C[C@@]35CC[C@]12C)[C@@H](C)CO [Compound 11, 1,2-dihydro-neoboutomellerone]
a: bucket 3

q: State the class of the compound shown: C=C(C(=O)[C@H](O)[C@@H](C)[C@H]1[C@@H](OC(C)=O)C[C@@]2(C)[C@@H]3CC[C@H]4[C@H](C)C(=O)C=C[C@@]45C[C@@]35CC[C@]12C)C(C)C
a: bucket 3

q: State the class of the compound shown: C=C(C(=O)[C@H](OC(C)=O)[C@@H](C)[C@H]1[C@@H](OC(C)=O)C[C@@]2(C)C3CCC4[C@H](C)C(=O)C=C[C@@]45C[C@@]35CC[C@]12C)[C@@H](C)COP(=O)(O)O (some centres unmarked) [Compound 89, 26-phosphate-neoboutomellerone]
a: bucket 3

###

System: proteasome
METHOD DESCRIPTION: Cellular proteasome inhibition test: accumulation of 4Ub-Luc reporter (luciferase activity) in DLD-1 4Ub-Luc cell line
Format: cell-based, human
DETAILS: concentration tested 10^−5 M; DLD-1 4Ub-Luc cells; 8 hours; epoxomicin = 100%
Label Satisfied when relative induction factor (IF % luminescence) versus epoxomicin is at or above 50%; anything below gets Not satisfied.

q: Test whether the compound C=C(C(=O)[C@H](OC(C)=O)[C@@H](C)[C@H]1[C@@H](OC(C)=O)C[C@@]2(C)[C@@H]3CC[C@H]4[C@H](C)C(=O)C=C[C@@]45C[C@@]35CC[C@]12C)C(C)C [Compound 8, 26-dehydroxy-neoboutomellerone] records relative induction factor (IF % luminescence) versus epoxomicin of 50% or higher.
a: Not satisfied

q: Test whether the compound C=C(C(=O)[C@H](O)[C@@H](C)[C@H]1[C@@H](OC(C)=O)C[C@@]2(C)[C@@H]3CC[C@H]4[C@H](C)C(=O)C[C@H](O)[C@@]45C[C@@]35CC[C@]12C)[C@@H](C)CO [Compound 15] records relative induction factor (IF % luminescence) versus epoxomicin of 50% or higher.
a: Satisfied

q: Test whether the compound C=C(C(=O)[C@H](OC(=O)CCl)[C@@H](C)[C@H]1[C@@H](OC(C)=O)C[C@@]2(C)C3CCC4[C@H](C)C(=O)C=C[C@@]45C[C@@]35CC[C@]12C)[C@@H](C)COC(C)=O (some centres unmarked) [Compound 61] records relative induction factor (IF % luminescence) versus epoxomicin of 50% or higher.
a: Not satisfied

q: Test whether the compound C=C(C(=O)[C@H](O)[C@@H](C)[C@H]1[C@@H](OC(C)=O)C[C@@]2(C)[C@@H]3CC[C@H]4[C@H](C)C(=O)C=C[C@@]45C[C@@]35CC[C@]12C)[C@@H](C)COC(=O)CCN(CC)CC [Compound 66] records relative induction factor (IF % luminescence) versus epoxomicin of 50% or higher.
a: Not satisfied

q: Test whether the compound CC(=O)O[C@H]1C[C@@]2(C)[C@@H]3CC[C@H]4[C@H](C)C(=O)C=C[C@@]45C[C@@]35CC[C@]2(C)[C@H]1[C@H](C)[C@@H](O)C(=O)C=C(C)C [Compound 10] records relative induction factor (IF % luminescence) versus epoxomicin of 50% or higher.
a: Satisfied

q: Test whether the compound C=C(C(=O)[C@H](OC(C)=O)[C@@H](C)[C@H]1[C@@H](OC(C)=O)C[C@@]2(C)[C@@H]3CC[C@H]4[C@H](C)C(=O)C=C[C@@]45C[C@@]35CC[C@]12C)[C@@H](C)COC(=O)Nc1ccc(N(C)C)cc1 [Compound 25] records relative induction factor (IF % luminescence) versus epoxomicin of 50% or higher.
a: Satisfied

q: Test whether the compound C=C(C(=O)[C@H](O)[C@@H](C)[C@H]1[C@@H](OC(C)=O)C[C@@]2(C)[C@@H]3CC[C@H]4[C@H](C)C(=O)CC[C@@]45C[C@@]35CC[C@]12C)[C@@H](C)CO [Compound 14] records relative induction factor (IF % luminescence) versus epoxomicin of 50% or higher.
a: Satisfied
